Item-by-item account of IC50
# system_under_test: HIV-1 HXBc2 gp120 (HIV-1 (HXBc2), UniProt P04578)
# test_name: SPR

binder: Fab m18 S52A (LCDR2) (Fab, V domains shown) VH: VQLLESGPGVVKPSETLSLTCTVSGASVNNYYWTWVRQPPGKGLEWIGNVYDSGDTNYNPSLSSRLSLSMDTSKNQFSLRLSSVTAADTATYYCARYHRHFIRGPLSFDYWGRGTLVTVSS VL: LQMTQSPSFLSASVGDRVSITCRASQDIQKFLAWYQLTPGDAPKLLMYSAATLQSGVPSRFSGSGSGTEFTLTISGLQPEDFATYYCQHLKRYPYTFGQGTKLEIS
IC50: > 360 nM

binder: Fab m18 K31A (LCDR1) (Fab, V domains shown) VH: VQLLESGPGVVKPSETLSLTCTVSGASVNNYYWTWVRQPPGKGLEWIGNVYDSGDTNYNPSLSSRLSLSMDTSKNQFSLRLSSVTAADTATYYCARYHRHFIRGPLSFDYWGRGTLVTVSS VL: LQMTQSPSFLSASVGDRVSITCRASQDIQAFLAWYQLTPGDAPKLLMYSASTLQSGVPSRFSGSGSGTEFTLTISGLQPEDFATYYCQHLKRYPYTFGQGTKLEIS
IC50: > 500 nM

binder: Fab m18 I100A (HCDR3) (Fab, V domains shown) VH: VQLLESGPGVVKPSETLSLTCTVSGASVNNYYWTWVRQPPGKGLEWIGNVYDSGDTNYNPSLSSRLSLSMDTSKNQFSLRLSSVTAADTATYYCARYHRHFARGPLSFDYWGRGTLVTVSS VL: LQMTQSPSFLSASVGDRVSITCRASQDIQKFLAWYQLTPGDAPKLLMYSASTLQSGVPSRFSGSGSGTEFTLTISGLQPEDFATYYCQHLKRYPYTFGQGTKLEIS
IC50: > 500 nM
